- measurementNotes: Experimental lipophilicity logk by RP-HPLC
- details: methanol 70% / water 30%, C18
So basically, if Logk comes in under 0.4 it's Fulfilled, and if it's 0.4 or more it's Not fulfilled.

Please review the following examples before continuing.
Hello, I'm reviewing records and need to know if Logk of `NC(=O)c1nccnc1NCc1ccc(N)cc1` is below 0.4. Could you check?
Fulfilled

Hello, I'm reviewing records and need to know if Logk of `NC(=O)c1nccnc1NCc1ccc(Cl)cc1` is below 0.4. Could you check?
Fulfilled

Hello, I'm reviewing records and need to know if Logk of `NC(=O)c1nccnc1NCc1ccccc1Cl` is below 0.4. Could you check?
Not fulfilled

Hello, I'm reviewing records and need to know if Logk of `NC(=O)c1nccnc1NCc1cccc(Cl)c1` is below 0.4. Could you check?
Fulfilled

Hello, I'm reviewing records and need to know if Logk of `NC(=O)c1nccnc1NCc1ccc(Cl)c(Cl)c1` is below 0.4. Could you check?
Not fulfilled

Hello, I'm reviewing records and need to know if Logk of `NC(=O)c1nccnc1NCc1cccc([N+](=O)[O-])c1` is below 0.4. Could you check?
Fulfilled

Hello, I'm reviewing records and need to know if Logk of `COc1ccc(CNc2nccnc2C(N)=O)cc1` is below 0.4. Could you check?
Fulfilled

Hello, I'm reviewing records and need to know if Logk of `Cc1ccc(CNc2nccnc2C(N)=O)cc1` is below 0.4. Could you check?
Not fulfilled

Now turn to the next molecule.
Hello, I'm reviewing records and need to know if Logk of `NC(=O)c1nccnc1NCc1ccc(C(F)(F)F)cc1` is below 0.4. Could you check?
Not fulfilled

Origin of measurements: paper PMC6155776
